TESTED TARGET: T1, Human Tau 2N4R, wild type, recombinant full length (human, UniProt P10636 2-758)
T1 construct: Full length 2N4R isoform; monomer in SPR and ELISA; heparin-induced aggregates or seeds in the functional assays; also called Tau441; Tau-441
T1 sequence (P10636 other isoform, or with tags, fused parts or gaps limits assumed): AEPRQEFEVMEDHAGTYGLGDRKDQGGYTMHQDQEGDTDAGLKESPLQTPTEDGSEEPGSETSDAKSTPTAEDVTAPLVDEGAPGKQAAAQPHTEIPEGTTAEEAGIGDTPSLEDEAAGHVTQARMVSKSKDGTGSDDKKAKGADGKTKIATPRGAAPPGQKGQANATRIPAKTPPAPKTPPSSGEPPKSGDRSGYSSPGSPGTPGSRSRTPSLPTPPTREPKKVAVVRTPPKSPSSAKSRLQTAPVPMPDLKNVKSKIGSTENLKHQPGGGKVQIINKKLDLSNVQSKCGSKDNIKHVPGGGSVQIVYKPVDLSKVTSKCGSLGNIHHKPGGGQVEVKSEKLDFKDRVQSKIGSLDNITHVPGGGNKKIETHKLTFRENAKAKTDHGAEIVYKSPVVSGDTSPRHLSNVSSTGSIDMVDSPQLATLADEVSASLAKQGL
ASSAY DETAILS: SPR BIAcore, mAb captured by anti-human IgG, Tau flowed, 1:1 Langmuir
QUANTITY: koff (s⁻¹)
Respond numerically; units are s⁻¹ and should not be typed.

Recorded koff, per entry:
Asked: # input binder: 7G6-HCzu15-LCzu12 (antibody, human IgG1, kappa, V domains shown, humanized, human IgG1 kappa) VH: EVQLLESGGGLVQPGGSLRLSCAASGYTFTTYWITWVRQAPGKGLEWVGDIYPGSSICNYNEKFKSRFTISVDNSKNTAYLQMNSLRAEDTAVYYCAREDGYDAWFAYWGQGTLVTVSS VL: DVQMTQSPSSLSASVGDRVTITCRSSQSILHSNGNTYLEWYQQKPGKAPKLLICKVSNRFSGVPSRFSGSGSGTDFTLTISSLQPEDFATYYCFQGSHVPFTFGQGTKLEIKR ; wanted: its koff
Given back: 0.000278

Asked: # input binder: 7G6-HCzu13-LCzu12 (antibody, human IgG1, kappa, V domains shown, humanized, human IgG1 kappa) VH: EVQLLESGGGLVQPGGSLRLSCAASGYTFTTYWITWVRQAPGKGLEWVGDIYPGSSICNYADSVKGRFTISVDNSKSTAYLQMNSLRAEDTAVYYCAREDGYDAWFAYWGQGTLVTVSS VL: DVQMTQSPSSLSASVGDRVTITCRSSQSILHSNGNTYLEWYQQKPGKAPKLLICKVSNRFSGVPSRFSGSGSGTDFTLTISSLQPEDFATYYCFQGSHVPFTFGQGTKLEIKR ; wanted: its koff
Given back: 0.000239

Asked: # input binder: 7G6-HCzu20-LCzu12 (antibody, human IgG1, kappa, V domains shown, humanized, human IgG1 kappa) VH: EVQLLESGGGLVQPGGSLRLSCAASGYTFTTYWITWVRQAPGKGLEWVSDIYPGSSICNYADKFKGRFTISRDNSKNTLYLQMNSLRAEDTAVYYCAKEDGYDAWFAYWGQGTLVTVSS VL: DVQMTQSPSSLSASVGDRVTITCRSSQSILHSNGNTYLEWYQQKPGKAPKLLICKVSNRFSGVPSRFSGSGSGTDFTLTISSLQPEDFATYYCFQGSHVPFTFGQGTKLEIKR ; wanted: its koff
Given back: 0.000136

Asked: # input binder: 7G6-HCzu12-LCzu16 (antibody, human IgG1, kappa, V domains shown, humanized, human IgG1 kappa) VH: EVQLLESGGGLVQPGGSLRLSCAASGYTFTTYWITWVRQAPGKGLEWVGDIYPGSSICNYNEKFKSRFTISVDNSKSTAYLQMNSLRAEDTAVYYCAREDGYDAWFAYWGQGTLVTVSS VL: DVQMTQSPSSLSASVGDRVTITCRSSQSIVHSNGNTYLEWYQQKPGKAPKLLISKVSNRFSGVPSRFSGSGSGTDFTLTISSLQPEDFATYYCFQGSHVPFTFGQGTKLEIKR ; wanted: its koff
Given back: 0.000148

// below: koff requested for another binder
Asked: # input binder: 7G6-HCzu14-LCzu12 (antibody, human IgG1, kappa, V domains shown, humanized, human IgG1 kappa) VH: EVQLLESGGGLVQPGGSLRLSCAASGYTFTTYWITWVRQAPGKGLEWVGDIYPGSSICNYADKFKGRFTISVDNSKSTAYLQMNSLRAEDTAVYYCAREDGYDAWFAYWGQGTLVTVSS VL: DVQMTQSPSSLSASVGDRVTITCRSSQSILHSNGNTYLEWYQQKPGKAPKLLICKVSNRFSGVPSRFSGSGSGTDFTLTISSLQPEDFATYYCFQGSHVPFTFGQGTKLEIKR ; wanted: its koff
Given back: 0.000194
